target: Recombinant human c-Cbl (aa 47-435) (Homo sapiens, UniProt P22681)
Sequence (P22681 47-435): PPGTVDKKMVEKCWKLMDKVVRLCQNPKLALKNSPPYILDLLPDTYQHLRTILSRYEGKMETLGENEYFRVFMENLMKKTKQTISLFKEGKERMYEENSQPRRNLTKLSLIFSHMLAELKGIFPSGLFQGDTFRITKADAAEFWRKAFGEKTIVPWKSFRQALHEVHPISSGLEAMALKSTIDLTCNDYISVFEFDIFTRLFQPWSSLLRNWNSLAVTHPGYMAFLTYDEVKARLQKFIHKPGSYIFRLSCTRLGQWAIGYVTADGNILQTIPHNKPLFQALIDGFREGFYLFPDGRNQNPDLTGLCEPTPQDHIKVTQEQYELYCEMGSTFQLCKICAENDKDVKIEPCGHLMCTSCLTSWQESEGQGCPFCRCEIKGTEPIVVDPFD
assay comment: c-Cbl Biochemical Assay (TR-FRET)
cond: hc-Cbl Biochemical Assay (TR-FRET); read-out: TR-FRET hcCbl IC50
measure name: IC50

(Q) Look up IC50 of Cn1cnnc1-c1ccccc1-c1cccc(-c2nc3cc(C(C)(C)O)cc(C(F)(F)F)c3o2)c1 and report it.
(A) 10 to 50 µM

(Q) Look up IC50 of Cn1cnnc1-c1cc(C#N)ccc1-c1cc(-c2nc3cc(CO)cc(F)c3o2)nc(C2CC2)c1 and report it.
(A) 1 to 10 µM

(Q) Look up IC50 of Cn1cnnc1-c1cc(F)ccc1-c1cc(-c2nc3cc(CN[C@@H]4CCC[C@@H]4O)ccc3[nH]2)nc(C2CC2)c1 and report it.
(A) < 0.2 µM

(Q) Look up IC50 of Cn1cnnc1-c1cc(F)ccc1-c1cccc(-c2nc3ccccc3o2)c1 and report it.
(A) 10 to 50 µM

(Q) Look up IC50 of CCNc1cc(-c2ccc(F)cc2-c2nncn2C)cc(-c2nc3cc(CO)cc(C(F)(F)F)c3o2)n1 and report it.
(A) 0.2 to 1 µM

(Q) Look up IC50 of Cn1cnnc1-c1cc(F)ccc1-c1cccc(-c2nc3cc(CNCC(C)(C)O)c(F)c(F)c3o2)c1 and report it.
(A) < 0.2 µM

(Q) Look up IC50 of Cn1cnnc1-c1cc(F)ccc1-c1cccc(-c2nc3cc(CN[C@@H]4COC[C@@H]4O)cc(C(F)(F)F)c3o2)c1 and report it.
(A) < 0.2 µM

(Q) Look up IC50 of CN(Cc1cc(C(F)(F)F)c2[nH]c(-c3cccc(-c4ccc(F)cc4-c4nncn4C)c3)nc2c1)[C@@H]1CCC[C@@H]1O and report it.
(A) < 0.2 µM

(Q) Look up IC50 of Cn1cnnc1-c1cc(F)ccc1-c1cccc(-c2nc3cc(CN[C@@H]4CCC[C@@H]4O)ccc3o2)c1 and report it.
(A) < 0.2 µM

(Q) Look up IC50 of COC(C)(C)CNCc1cc(C(F)(F)F)c2oc(-c3cccc(-c4ccc(F)cc4-c4nncn4C)c3)nc2c1 and report it.
(A) 1 to 10 µM

(Q) Look up IC50 of Cn1cnnc1CC1(c2cccc(-c3nc4cc(CN5CCC6(CC6)C5)cc(C(F)(F)F)c4[nH]3)c2)COC1 and report it.
(A) 1 to 10 µM

(Q) Look up IC50 of COCC(C)(C)NCc1cc(C(F)(F)F)c2oc(-c3cccc(-c4ccc(F)cc4-c4nncn4C)c3)nc2c1 and report it.
(A) 0.2 to 1 µM

(Q) Look up IC50 of COCCCNCc1cc(OC)c2oc(-c3cccc(-c4ccc(F)cc4-c4nncn4C)c3)nc2c1 and report it.
(A) 0.2 to 1 µM

(Q) Look up IC50 of COC(=O)c1[nH]c(=O)c(-c2cccc(-c3ccccc3-c3nncn3C)c2)cc1C(F)(F)F and report it.
(A) 10 to 50 µM

(Q) Look up IC50 of C[C@H]1CCCN(Cc2cc(C(F)(F)F)c3oc(-c4cccc(-c5ccc(C#N)cc5-c5nncn5C)c4)nc3c2)C1 and report it.
(A) 1 to 10 µM

(Q) Look up IC50 of Cn1cnnc1-c1cc(F)ccc1-c1cccc(-c2nc3cc(CNCC4(O)CC(F)(F)C4)cc(C(F)(F)F)c3[nH]2)c1 and report it.
(A) < 0.2 µM

(Q) Look up IC50 of Cn1cnnc1-c1cc(F)ccc1-c1cc(-c2nc3cc(CN[C@@H]4CCC[C@@H]4O)cc(F)c3o2)cc(C2CC2)c1 and report it.
(A) < 0.2 µM

(Q) Look up IC50 of C[C@H]1CCCN(Cc2cc(C(F)(F)F)c3[nH]c(-c4cccc(-c5ccc(F)cc5-c5nncn5C)c4)nc3c2)C1 and report it.
(A) 1 to 10 µM

(Q) Look up IC50 of Cn1cnnc1CC1(c2cccc(-c3nc4cc(CN5CCCC5)cc(C(F)(F)F)c4[nH]3)c2)COC1 and report it.
(A) 10 to 50 µM

(Q) Look up IC50 of C[C@H]1CCCN(Cc2cc(F)c3oc(-c4cc(-c5ccc(C#N)cc5-c5nncn5C)cc(C5CC5)n4)nc3c2)C1 and report it.
(A) < 0.2 µM

(Q) Look up IC50 of Cn1cnnc1-c1cc(F)ccc1-c1cccc(-c2nc3cc(CNCC(C)(C)O)cc(C(F)(F)F)c3[nH]2)c1 and report it.
(A) 1 to 10 µM

(Q) Look up IC50 of Cn1cnnc1-c1cc(C#N)ccc1-c1cccc(-c2nc3cc(CN[C@@H]4CCC[C@@H]4O)cc(C(F)(F)F)c3o2)c1 and report it.
(A) < 0.2 µM

(Q) Look up IC50 of C[C@H]1CCCN(Cc2cc(C(F)(F)F)c3oc(-c4cc(-c5ccccc5-c5nncn5C)cc(C5CC5)n4)nc3c2)C1 and report it.
(A) 1 to 10 µM

(Q) Look up IC50 of Cn1cnnc1-c1cc(F)ccc1-c1cccc(-c2nc3cc(C(=O)N[C@@H]4CCC[C@@H]4O)cc(C(F)(F)F)c3o2)c1 and report it.
(A) 1 to 10 µM

(Q) Look up IC50 of Cn1cnnc1[C@]1(c2cccc(-c3nc4cc(CN[C@@H]5CCC[C@@H]5O)cc(C(F)(F)F)c4o3)c2)C[C@@H](C)C1 and report it.
(A) < 0.2 µM

(Q) Look up IC50 of CC(C)NCc1cc(C(F)(F)F)c2oc(-c3cccc(-c4ccc(F)cc4-c4nncn4C)c3)nc2c1 and report it.
(A) 0.2 to 1 µM

(Q) Look up IC50 of CO[C@@H](CO)c1cc(C(F)(F)F)c2oc(-c3cccc(-c4ccc(F)cc4-c4nncn4C)c3)nc2c1 (single isomer, unassigned) and report it.
(A) 0.2 to 1 µM

(Q) Look up IC50 of Cn1cnnc1-c1ccccc1-c1cccc(-c2nc3cc(CO)cc(C(F)(F)F)c3o2)c1 and report it.
(A) 10 to 50 µM

(Q) Look up IC50 of Cn1cnnc1-c1ccccc1-c1cccc(-c2nc3cc(CN[C@@H]4CCC[C@H]4O)cc(C(F)(F)F)c3o2)c1 and report it.
(A) 1 to 10 µM

The origin of these recorded values is patent US20250163038A1.
